Reported one-hybrid fitness for binding parS DNA values for a set of variants
B1: Caulobacter ParB omega fusion; a variant is named by its letters at X, in order, B8GW30 (parent)
chain: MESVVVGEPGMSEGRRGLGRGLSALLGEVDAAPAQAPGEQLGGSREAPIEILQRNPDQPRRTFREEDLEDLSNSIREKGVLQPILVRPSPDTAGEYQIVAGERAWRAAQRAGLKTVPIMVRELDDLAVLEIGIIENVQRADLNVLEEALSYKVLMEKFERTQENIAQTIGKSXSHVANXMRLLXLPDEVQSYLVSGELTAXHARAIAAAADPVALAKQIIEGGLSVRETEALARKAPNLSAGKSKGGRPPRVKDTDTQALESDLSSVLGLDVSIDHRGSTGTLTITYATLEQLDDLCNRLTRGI

# Variants of: B1
# TEST NAME: one-hybrid fitness for binding parS DNA (scaled: cognate 1, non-cognate 0); higher = stronger binding
# TEST SETTINGS: with parS DNA site
In all, about 81,000 sequences were measured (“one-hybrid fitness for binding parS DNA”: median about -0.17, highest 2% from about 0.51 on). This excerpt belongs to a sample that is enriched for the highest values.
QUANTITY: one-hybrid fitness for binding parS DNA

> print(dat)
    sequence.change                                 quantity  measured
 1             RHFP  one-hybrid fitness for binding parS DNA     ≤ 0.2
 2             RSKP  one-hybrid fitness for binding parS DNA     ≤ 0.2
 3             RKLS  one-hybrid fitness for binding parS DNA     0.876
 4             RKPH  one-hybrid fitness for binding parS DNA     ≤ 0.2
 5             RCKC  one-hybrid fitness for binding parS DNA     0.816
 6             PPGC  one-hybrid fitness for binding parS DNA     ≤ 0.2
 7             RLFN  one-hybrid fitness for binding parS DNA     0.395
 8             RSKN  one-hybrid fitness for binding parS DNA     0.443
 9             RTYA  one-hybrid fitness for binding parS DNA     0.606
10             RKIP  one-hybrid fitness for binding parS DNA     ≤ 0.2
11             RTRA  one-hybrid fitness for binding parS DNA     0.794
12             RLFD  one-hybrid fitness for binding parS DNA     ≤ 0.2
13             CAST  one-hybrid fitness for binding parS DNA     ≤ 0.2
14             DYNA  one-hybrid fitness for binding parS DNA     ≤ 0.2
15             RYDA  one-hybrid fitness for binding parS DNA     0.559
16             RHAY  one-hybrid fitness for binding parS DNA     0.403
17             RDKC  one-hybrid fitness for binding parS DNA     0.282
18             RLAH  one-hybrid fitness for binding parS DNA     ≤ 0.2
19             RPKC  one-hybrid fitness for binding parS DNA     ≤ 0.2
20             PAPL  one-hybrid fitness for binding parS DNA     ≤ 0.2
21             RKID  one-hybrid fitness for binding parS DNA     ≤ 0.2
22             NTRA  one-hybrid fitness for binding parS DNA     ≤ 0.2
